REPORTED_METRIC: melting point

Q: // melting point lookup, key: CCCCCCCCCCCCOC(=O)c1cc(N)ccc1[N+](=O)[O-]
A: 58 to 59 °C

Q: Please give the result for CN1CCC(c2c[nH]c3ccc(C(=O)c4ccc(OC(F)(F)F)cc4)cc23)CC1 too.
A: 172 to 175 °C

Q: Same question for CCc1[nH]cnc1-c1cc(C(C)(C)C)c(O)c(C(C)(C)C)c1 please.
A: 200 to 201 °C

Q: NS(=O)(=O)c1cccc(-c2noc(-c3cnn4c(C(F)F)cc(-c5ccc(Cl)cc5)nc34)n2)c1 ?
A: 231 °C

Q: Now give it for Cn1cc(C(=O)NCc2ccc(Cl)cc2)c(=O)c2cc(CN3CCOCC3)cc(C#CCO)c21 too.
A: 180 to 183 °C

Q: Proceed to CCOC(=O)c1cnc(-c2cc3cccc([N+](=O)[O-])c3n2COC)s1
A: 92 to 93 °C

Q: What do you get for CCCCc1nn(-c2ccc(C(F)(F)F)cn2)cc1CO ?
A: 110 to 111 °C

Q: How about COc1cc(CC(=O)Nc2nn(-c3ccccc3)cc2C=O)ccc1OCc1nc(-c2ccco2)oc1C ?
A: 190 to 191 °C

Q: And what about the compound O=C1CCCN1C(=O)Oc1cccc(Br)c1 ?
A: 95 to 96 °C

Q: Record: CCc1cccc(C(C#N)c2nc(OC)cc(OC)n2)c1[N+](=O)[O-] (stereo not given)
A: 113 to 114 °C

Q: Further, for CCc1ccc([N+](=O)[O-])cc1COC ?
A: 21.5 to 23.5 °C

Q: And CC(C)c1cccc(C(C)C)c1NC(=O)CNC(c1ccccc1)c1ccc(N(C)C)cc1 (stereo not given) ?
A: 116 to 117 °C

Q: And what about the compound c1ccc(Oc2ccc(-c3nc(-c4ccccc4)c(-c4ccccc4)o3)cc2)cc1 ?
A: 125 to 126 °C

Q: Same again, this time with CCOC(=O)c1cccc2c1Nc1ccc(C(=O)c3ccccc3)cc1N2
A: 175 to 177 °C

Q: Field entry: COc1ccc(CCN(C)CCOc2ccc(NC(=O)c3cc(SC)cc4c(=O)c5ccccc5[nH]c34)cc2)cc1OC
A: 150 °C

Q: Request: CCN1CC(C)Oc2cccc3nc4c(c1c23)CCCC4 (stereo not given)
A: 101 to 103 °C

Q: For NC(=O)N1CCCC1COc1cncc(Cl)c1 (stereo not given) then?
A: 95 °C

Q: Same again, this time with O=C1C=C(NC(=O)C(=O)c2cn(Cc3c(F)c(F)c(F)c(F)c3F)c3ccccc23)CO1
A: 280 to 282 °C

Q: Then this compound: CCC1(CCI)C(=O)N2CC=CC(C(=O)OC)N2C1=O (stereo not given)
A: 95 to 97 °C

Q: Next: ClC1=NCc2ccccc2SC1
A: 164 to 168 °C

====

REPORTED_METRIC: melting point

Q: For the compound shown here, CC(C)(C)C(=O)NC(=O)N1CC1C#N (stereo not given) , give the reported melting point.
A: 136 to 138 °C

Q: Same again, this time with COC(=O)c1cccc(C2=NC(C)(C)Cc3cc(OC)c4c(c32)CC(C)(C)O4)c1
A: 137 to 138 °C

Q: // next record Cc1[nH]c(-c2ccccc2)c(N)c1C(=O)c1ccccc1Cl
A: 214 to 216 °C

Q: Record: CN(C)S(=O)(=O)n1cc(I)cn1
A: 32 °C

Q: What do we get for N#CC1CN1C(=O)CNC(N)=O (stereo not given) ?
A: 110 to 114 °C

Q: Then CCCc1c(OCC=CS(=O)(=O)c2ccc(CC(=O)O)c(F)c2)ccc(C(C)=O)c1O ?
A: 249 to 251 °C

Q: Request: O=S(=O)(c1ccc(F)cc1)c1c[nH]c2ncccc12
A: 212 to 213 °C

Q: Then CNC(=O)c1ccc(-c2ccc3nnn(Cc4ccc5ncccc5c4)c3n2)cc1Cl ?
A: 227 to 230 °C

Q: Next up: O=C(O)c1ccc2c(=O)[nH]c(=O)n(CCCCN3CCC(OC(c4ccccc4)c4ccccc4)CC3)c2c1
A: 177 to 179 °C

Q: Note, next up: CC(O)CC1NC(=O)c2ccccc21 (stereo not given)
A: 100 to 102 °C

Q: Also need CC(=O)Nc1ccc(S(=O)(=O)N2CCN(c3c(F)cc4c(=O)c(C(=O)O)cn(C5CC5)c4c3F)CC2)cc1 , thanks.
A: 282 to 284 °C

Q: Same question, CCOC(=O)c1cc2c3n(ccc-2n1)CC(C)=N3 this time
A: 201 to 203 °C

Q: Check CC12CCC(=O)C=C1CCC1C2C(O)CC2(C)C1CCC2(O)C(=O)COC(=O)CC(CC(=O)O)c1ccc(O)cc1 (stereo not given) too.
A: 98 to 110 °C

Q: Another compound to look at: CC(CCn1cnc2ccccc21)NCC(O)COc1ccc(CC(N)=O)cc1 (stereo not given)
A: 139 to 142 °C

Q: # repeat for CCOC(=O)c1cnn(-c2ccccn2)c1Cl
A: 50 to 51 °C

Q: Record: CCOc1c(C2=C(C(C)(C)C)C(C)(C)CO2)sc2ccc(O[Si](C)(C)C(C)(C)C)cc12
A: 64 to 65 °C

Q: What do you have for COc1ccc(N2CCN(Cc3cn4cc(Cl)ccc4n3)CC2)cc1 ?
A: 111 to 112 °C

Q: Next compound: CC(=O)c1ccc(F)c(S(N)(=O)=O)c1
A: 135 °C

Q: Could you do the same for CCOC(=O)C(C(=O)C(C)C)C1c2ccccc2C(=O)N1c1ccc2ccc(Cl)nc2n1 (stereo not given) , please?
A: 146 °C

Q: Can you check CN1C2CCCC1CC(NC(=O)c1cccc3oc(-c4ccc(F)cc4)nc13)C2 (stereo not given) next?
A: 197 to 199 °C
